System: MCF7/TAMR
Test: Cytotoxic activity against tamoxifen-resistant MCF7 cells
Conditions: Homo sapiens, MCF7, read-out: Cytotoxic Activities (IC50, μM) MCF7/TAMR
IC50 strictly less than 10 µM = label 1. Otherwise label 0.

Worked set:
CC(CO)c1cc2c(c(O)c1O)[C@@]1(C)CCCC(C)(C)C1CC2=O (some centres unmarked) : label 0
CC1=C(C)C2=CC(=O)c3c(O)c4c(c(O)c3[C@@]2(C)CC1)O[C@@H](C)C4 : label 1
CC/C(=C(\c1ccccc1)c1ccc(OCCN(C)C)cc1)c1ccccc1 [Tamoxifen, tamoxifen, reference compound] : label 0
CC1(C)CC[C@]2(C(=O)O)CC[C@]3(C)C(=CCC4[C@@]5(C)CCC(O[C@@H]6OC[C@H](O[C@@H]7O[C@H](CO)[C@@H](O)[C@H](O)[C@H]7O)[C@H](O)[C@H]6O)C(C)(C)C5CC[C@]43C)C2C1 (some centres unmarked) : label 1

# evaluate next
Query :: I'd appreciate it if you could check whether CC1(C)CC[C@]2(C(=O)O)CC[C@]3(C)C(=CCC4[C@@]5(C)CCC(O[C@@H]6OC[C@H](O)[C@H](O)[C@H]6O)C(C)(C)C5CC[C@]43C)C2C1 (some centres unmarked) has IC50 smaller than 10 µM.
Result :: label 1

src = paper PMC6273847
